# EXPERIMENTAL DETAILS: Secondary structural content by CD spectroscopy
# Assay type: physicochemical
# REPORTED CONDITIONS: 25 °C, protein 5 μM, 50 mM Tris–HCl pH 7.5, 150 mM NaCl, 0.1% β‐mercaptoethanol, CDSSTR
RECORDED METRIC: Disordered (random coil) content

molecule="N245–370: truncated C‐terminal domain of the HCoV‐229E N protein, extended C‐terminal tail that includes residue 370 (protein, left off: His6, C-terminal, state not stated) QKPRWKRQPNDDVTSNVTQCFGPRDLDHNFGSAGVVANGVKAKGYPQFAELVPSTAAMLFDSHIVSKESGNTVVLTFTTRVTVPKDHPHLGKFLEELNAFTREMQQHPLLNPSALEFNPSQTSPAT" reported_value=17%
molecule="N245–389: truncated C‐terminal domain of the HCoV‐229E N protein, extended C‐terminal tail that includes residue 389 (protein, left off: His6, C-terminal, state not stated) QKPRWKRQPNDDVTSNVTQCFGPRDLDHNFGSAGVVANGVKAKGYPQFAELVPSTAAMLFDSHIVSKESGNTVVLTFTTRVTVPKDHPHLGKFLEELNAFTREMQQHPLLNPSALEFNPSQTSPATAEPVRDEVSIETDIIDEVN" reported_value=13%

// each molecule listed below needs its Disordered (random coil) content
1. N245–382: truncated C‐terminal domain of the HCoV‐229E N protein, extended C‐terminal tail that includes residue 382 (protein, left off: His6, C-terminal, state not stated) QKPRWKRQPNDDVTSNVTQCFGPRDLDHNFGSAGVVANGVKAKGYPQFAELVPSTAAMLFDSHIVSKESGNTVVLTFTTRVTVPKDHPHLGKFLEELNAFTREMQQHPLLNPSALEFNPSQTSPATAEPVRDEVSIET
2. N245–376: truncated C‐terminal domain of the HCoV‐229E N protein, extended C‐terminal tail that includes residue 376 (protein, left off: His6, C-terminal, state not stated) QKPRWKRQPNDDVTSNVTQCFGPRDLDHNFGSAGVVANGVKAKGYPQFAELVPSTAAMLFDSHIVSKESGNTVVLTFTTRVTVPKDHPHLGKFLEELNAFTREMQQHPLLNPSALEFNPSQTSPATAEPVRD

13%
15%
